# System tested: T1, mouse transferrin receptor (mouse, UniProt Q62351 89-763, limits assumed)
# T1 construct: also called TfR Mouse
# T1 sequence (Q62351 89-763 limits assumed): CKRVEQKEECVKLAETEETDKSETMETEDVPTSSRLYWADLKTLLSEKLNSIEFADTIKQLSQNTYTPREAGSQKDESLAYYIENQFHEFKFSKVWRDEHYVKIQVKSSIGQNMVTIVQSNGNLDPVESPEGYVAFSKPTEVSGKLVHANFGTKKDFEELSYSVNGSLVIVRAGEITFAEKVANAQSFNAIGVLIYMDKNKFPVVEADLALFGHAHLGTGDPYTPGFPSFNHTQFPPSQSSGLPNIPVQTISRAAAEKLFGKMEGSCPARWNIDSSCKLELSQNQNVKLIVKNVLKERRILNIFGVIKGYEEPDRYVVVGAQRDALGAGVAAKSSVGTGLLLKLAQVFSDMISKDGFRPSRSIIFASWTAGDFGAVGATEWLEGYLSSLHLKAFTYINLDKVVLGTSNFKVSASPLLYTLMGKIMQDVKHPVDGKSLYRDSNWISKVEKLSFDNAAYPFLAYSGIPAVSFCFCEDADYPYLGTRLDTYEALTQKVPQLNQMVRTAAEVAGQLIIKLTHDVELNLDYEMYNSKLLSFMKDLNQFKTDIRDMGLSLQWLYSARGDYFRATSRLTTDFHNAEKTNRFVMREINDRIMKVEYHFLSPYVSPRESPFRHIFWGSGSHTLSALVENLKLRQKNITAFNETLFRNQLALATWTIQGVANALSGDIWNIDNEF
# Procedure text: MST (Monolith NT.115), His-tag-dye-labelled protein, TfR titrated
Experimental endpoint: Kd (nM)
One number for each entry, in nM.

Here's what some known entries look like.
binder="AB-gp100-huHF (other, also called gp100-huHF (AB loop); TSA insertion site AB, gp100) HHHHHHMTTASTSQVRQNYHQDSEAAINRQINLELYASYVYLSMSYYFDRDDKVPRNQDWLVALKNFAKYFLHQSHEEREHAEKLMKLQNQRGGRIFLQDIKKPDCDDWESGLNAMECALHLEKNVNQSLLELHKLATDKNDPHLCDFIETHYLNEQVKAIKELGDHVTNLRKMGAPESGLAEYLFDKHTLGDSDNES" unit_symbol=nM recorded_measurement=40.8
binder="BC-gp100-huHF (other, also called gp100-huHF (BC loop); TSA insertion site BC, gp100) HHHHHHMTTASTSQVRQNYHQDSEAAINRQINLELYASYVYLSMSYYFDRDDVALKNFAKYFLHQSHEEREHAEKLMKLQNQRGGRIFLQDIKKPDCDDKVPRNQDWLWESGLNAMECALHLEKNVNQSLLELHKLATDKNDPHLCDFIETHYLNEQVKAIKELGDHVTNLRKMGAPESGLAEYLFDKHTLGDSDNES" unit_symbol=nM recorded_measurement=48
binder="CD-gp100-huHF (other, also called CD-loop-gp100; huHF-CD-gp100) HHHHHHMTTASTSQVRQNYHQDSEAAINRQINLELYASYVYLSMSYYFDRDDVALKNFAKYFLHQSHEEREHAEKLMKLQNQRGGRIFLQDIKKPDCDDWESGLNAMECALHLEKNVNQSLLELHKLATDKNDKVPRNQDWLPHLCDFIETHYLNEQVKAIKELGDHVTNLRKMGAPESGLAEYLFDKHTLGDSDNES" unit_symbol=nM recorded_measurement=15.9

Please find the next binder below.
Form field Kd, entry DE-gp100-huHF (other, One monomer is given; the particle is a self-assembled 24-mer. In the MST assay the His tag carried RED-tris-NTA dye non-covalently., also called huHF-DE-gp100; gp100-huHF (DE loop)) MHHHHHHLETTASTSQVRQNYHQDSEAAINRQINLELYASYVYLSMSYYFDRDDVALKNFAKYFLHQSHEEREHAEKLMKLQNQRGGRIFLQDIKKPDCDDWESGLNAMECALHLEKNVNQSLLELHKLATDKNDPHLCDFIETHYLNEQVKAIKELGDHVTNLRKMGAPEGSKVPRNQDWLEFSGLAEYLFDKHTLGDSDNES : 30.5
